readout_type: flash point
State the value with its unit after it.

1) CCCC(C)[N+](=O)[O-] (configuration not stated)	46 °C
2) Cc1cc(C)c(C)c(C)c1	63 °C
3) C1CCCCCCC1	28 °C

Fill in the blank: the reported flash point of C=CCOC(=O)CC [allylpropanoate] is ____.
25 °C

Fill in the blank: the reported flash point of "C1=CCCCC1" is ____.
-17 °C

Fill in the blank: the reported flash point of "C=CC(=O)O" is ____.
54 °C

Fill in the blank: the reported flash point of "OCCCCO" is ____.
121 °C

---

// reported flash point for each item listed
Write down the numeric answer in °C and omit the unit.

1. CCc1cccc(CC)c1	56
2. CCCCOC(C)=O [Butyl acetate]	25.0
3. C=CCOC(C)=O [ALLYL ACETATE]	22.2
4. CCCCCCCCCCC=O	96.0
5. CC(=O)C(C)C	-1.0

Fill in the blank: the reported flash point of Cc1ccc(C)c(C)c1C [1,2,3,4-TETRAMETHYLBENZENE] is ____.
68.0
